# assay_procedure: In vivo pharmacokinetic (PK) studies in rats
# Parameters: species or system Sprague-Dawley (SD) rats
# setup_conditions: male, Sprague-Dawley, rat, plasma; 150 mg/kg, IV; read-out: CLp (converted)
experimental_endpoint: clearance (mL/min/kg)
Could you give me the number in mL/min/kg? Just the number is fine.

Requested read-out: clearance. Entry: Cn1c(=O)ccc2ccc(F)c(OCCNC[C@H]3CN(c4cnc5c(n4)NC(=O)CO5)C(=O)O3)c21
14.5

---

pIC50 for assorted compounds
# assay_system: E. coli topoisomerase IV (Escherichia coli, UniProt P0AFI2+P20083)
# Sequence (P20083 whole entry): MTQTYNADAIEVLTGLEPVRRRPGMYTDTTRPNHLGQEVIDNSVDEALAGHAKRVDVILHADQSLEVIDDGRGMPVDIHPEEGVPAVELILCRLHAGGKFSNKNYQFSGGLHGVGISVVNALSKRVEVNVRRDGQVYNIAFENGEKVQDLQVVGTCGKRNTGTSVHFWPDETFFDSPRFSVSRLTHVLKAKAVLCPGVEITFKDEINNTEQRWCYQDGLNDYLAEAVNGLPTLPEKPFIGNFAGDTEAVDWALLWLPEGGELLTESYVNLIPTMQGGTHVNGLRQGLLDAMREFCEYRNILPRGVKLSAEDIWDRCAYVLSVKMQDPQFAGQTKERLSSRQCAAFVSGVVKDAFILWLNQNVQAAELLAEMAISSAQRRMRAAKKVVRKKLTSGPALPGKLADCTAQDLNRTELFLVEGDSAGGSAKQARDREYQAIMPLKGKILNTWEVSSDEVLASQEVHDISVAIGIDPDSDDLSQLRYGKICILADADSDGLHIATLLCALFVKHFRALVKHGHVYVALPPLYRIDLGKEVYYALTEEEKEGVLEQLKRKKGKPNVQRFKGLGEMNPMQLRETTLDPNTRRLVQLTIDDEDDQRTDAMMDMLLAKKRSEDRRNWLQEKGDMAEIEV
# Sequence (P0AFI2 whole entry): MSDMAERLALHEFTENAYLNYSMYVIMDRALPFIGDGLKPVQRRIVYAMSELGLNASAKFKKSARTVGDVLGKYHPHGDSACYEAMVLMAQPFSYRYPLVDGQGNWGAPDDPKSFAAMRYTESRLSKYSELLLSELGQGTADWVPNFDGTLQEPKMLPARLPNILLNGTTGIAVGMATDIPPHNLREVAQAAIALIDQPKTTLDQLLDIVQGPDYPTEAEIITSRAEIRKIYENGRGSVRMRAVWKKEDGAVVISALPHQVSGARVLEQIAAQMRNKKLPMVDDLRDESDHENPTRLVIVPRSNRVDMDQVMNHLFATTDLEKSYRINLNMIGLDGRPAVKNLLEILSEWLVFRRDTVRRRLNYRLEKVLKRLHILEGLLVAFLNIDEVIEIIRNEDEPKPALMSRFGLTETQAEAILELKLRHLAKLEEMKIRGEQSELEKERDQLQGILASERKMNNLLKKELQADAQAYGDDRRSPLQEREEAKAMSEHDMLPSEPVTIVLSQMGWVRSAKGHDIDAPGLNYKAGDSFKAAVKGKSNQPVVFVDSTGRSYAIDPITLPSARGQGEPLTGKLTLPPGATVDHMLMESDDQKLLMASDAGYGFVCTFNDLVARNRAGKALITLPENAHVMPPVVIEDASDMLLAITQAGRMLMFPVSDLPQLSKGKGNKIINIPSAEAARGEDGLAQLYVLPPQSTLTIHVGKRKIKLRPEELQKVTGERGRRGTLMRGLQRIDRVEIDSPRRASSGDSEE
# assay_procedure: biochemical
# setup_conditions: gel based decatenation assay; read-out: E. coli Topo IV IC50
pIC50: −log10 of the molar value.

Sample records with pIC50:
compound	pIC50
Cn1c(=O)ccc2ncc(Cl)c(OCCNC[C@H]3CN(c4cnc5c(n4)NC(=O)CO5)C(=O)O3)c21	4.75
CC(COc1c(F)ccc2ccc(=O)n(C)c12)NC[C@H]1CN(c2cnc3c(n2)NC(=O)CO3)C(=O)O1 (stereo partly shown)	> 6.46
Cn1c(=O)ccc2nccc(OCCNC[C@H]3CN(c4ccc5c(n4)NC(=O)CO5)C(=O)O3)c21	> 6.60
Cn1c(=O)ccc2ccc(F)c(OCCNC[C@H]3CN(c4cnc5c(n4)NC(=O)CO5)C(=O)O3)c21	7.35
Cn1c(=O)cnc2ccc(F)c(OCCNC[C@H]3CN(c4cnc5c(n4)NC(=O)CO5)C(=O)O3)c21	> 6.66
Cc1cc(=O)n(C)c2c(OCCNC[C@H]3CN(c4cnc5c(n4)NC(=O)CO5)C(=O)O3)c(F)ccc12	> 6.73

Now for the compound whose pIC50 we want.
Requested read-out: pIC50. Entry: Cn1c(=O)cnc2ccc(F)c(OCCNC[C@H]3CN(c4cnc5c(n4)NC(=O)CS5)C(=O)O3)c21
> 6.43
